- measurementTarget: NaV1.3 (Homo sapiens)
- Sequence (Q9NY46 whole entry): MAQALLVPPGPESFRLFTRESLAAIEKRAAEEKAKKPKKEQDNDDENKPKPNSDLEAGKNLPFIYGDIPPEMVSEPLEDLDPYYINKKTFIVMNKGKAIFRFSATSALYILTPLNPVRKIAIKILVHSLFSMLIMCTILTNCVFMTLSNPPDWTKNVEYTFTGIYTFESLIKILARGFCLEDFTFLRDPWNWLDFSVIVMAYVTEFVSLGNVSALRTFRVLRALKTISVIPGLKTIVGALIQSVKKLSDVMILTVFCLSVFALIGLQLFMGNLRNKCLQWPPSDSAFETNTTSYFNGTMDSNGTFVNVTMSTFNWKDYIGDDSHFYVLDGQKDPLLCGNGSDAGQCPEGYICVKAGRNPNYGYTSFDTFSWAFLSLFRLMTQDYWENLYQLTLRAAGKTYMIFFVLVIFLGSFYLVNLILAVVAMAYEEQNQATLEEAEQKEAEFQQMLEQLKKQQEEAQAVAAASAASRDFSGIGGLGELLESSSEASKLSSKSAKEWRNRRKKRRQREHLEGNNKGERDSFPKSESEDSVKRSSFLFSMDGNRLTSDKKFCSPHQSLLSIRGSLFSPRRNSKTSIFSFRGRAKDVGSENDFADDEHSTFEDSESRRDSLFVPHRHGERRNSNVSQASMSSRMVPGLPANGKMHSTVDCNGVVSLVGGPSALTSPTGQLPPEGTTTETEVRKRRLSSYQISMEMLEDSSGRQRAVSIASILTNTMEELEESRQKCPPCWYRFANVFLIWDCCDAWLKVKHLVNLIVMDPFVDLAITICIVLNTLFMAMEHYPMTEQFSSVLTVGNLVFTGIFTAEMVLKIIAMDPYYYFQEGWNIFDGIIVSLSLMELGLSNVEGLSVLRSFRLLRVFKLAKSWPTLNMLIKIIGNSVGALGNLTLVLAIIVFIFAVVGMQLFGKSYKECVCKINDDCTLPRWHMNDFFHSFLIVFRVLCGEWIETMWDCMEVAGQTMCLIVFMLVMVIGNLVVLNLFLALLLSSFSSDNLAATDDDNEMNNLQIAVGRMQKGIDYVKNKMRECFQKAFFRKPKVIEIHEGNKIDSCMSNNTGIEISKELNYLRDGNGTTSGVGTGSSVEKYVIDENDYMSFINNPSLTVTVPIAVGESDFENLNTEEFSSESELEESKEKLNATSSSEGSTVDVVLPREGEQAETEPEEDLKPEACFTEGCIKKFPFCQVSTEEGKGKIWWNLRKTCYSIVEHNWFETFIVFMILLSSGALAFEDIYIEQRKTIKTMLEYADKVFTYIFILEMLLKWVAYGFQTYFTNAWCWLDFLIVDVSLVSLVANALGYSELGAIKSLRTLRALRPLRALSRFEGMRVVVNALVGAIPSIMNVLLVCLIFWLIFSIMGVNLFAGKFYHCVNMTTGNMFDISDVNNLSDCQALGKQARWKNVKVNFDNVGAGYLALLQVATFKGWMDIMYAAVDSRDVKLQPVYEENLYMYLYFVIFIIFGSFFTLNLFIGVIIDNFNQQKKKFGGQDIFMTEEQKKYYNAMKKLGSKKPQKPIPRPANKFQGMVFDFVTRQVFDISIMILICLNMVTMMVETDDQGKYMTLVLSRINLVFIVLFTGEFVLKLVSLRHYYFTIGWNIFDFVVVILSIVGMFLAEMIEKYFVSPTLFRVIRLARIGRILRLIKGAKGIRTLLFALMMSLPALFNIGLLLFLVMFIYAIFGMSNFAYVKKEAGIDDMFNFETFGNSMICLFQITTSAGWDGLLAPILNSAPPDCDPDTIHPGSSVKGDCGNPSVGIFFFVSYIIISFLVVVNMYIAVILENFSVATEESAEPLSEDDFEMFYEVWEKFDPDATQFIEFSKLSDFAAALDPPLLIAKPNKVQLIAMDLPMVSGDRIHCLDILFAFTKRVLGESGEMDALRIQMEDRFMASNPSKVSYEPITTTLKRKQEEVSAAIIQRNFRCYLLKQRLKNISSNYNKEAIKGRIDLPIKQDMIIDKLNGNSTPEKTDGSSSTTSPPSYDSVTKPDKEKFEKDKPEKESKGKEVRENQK
- methodNotes: NaV inhibition, VIPR optical membrane potential assay with electrical stimulation
- Format: cell-based
- Design: expressed in transfected cells; host or cells: HEK293
- conditionLabel: activity against NaV 1.3 channel
pIC50: −log10 of the molar value.
measureName: pIC50

Examples with answers:
CC(C)(C)c1ccc(C(=O)Nc2cncc(S(C)(=O)=O)c2)c(Oc2ccc(F)cc2Cl)c1    4.70 to 5.00
CC(C)(C)c1ccc(C(=O)Nc2cncc(S(N)(=O)=O)c2)c(Oc2ccc(F)cc2Cl)c1    5.00 to 5.70
CC(C)(C)c1ccc(C(=O)Nc2cncc(S(C)(=O)=O)c2)c(Oc2cccc(C(F)(F)F)n2)c1    4.70 to 5.00

Challenge: pIC50 for Cc1ncccc1Oc1cc(C(C)(C)C)ccc1C(=O)Nc1cncc(S(N)(=O)=O)c1 ?
Response given: < 4.70

Challenge: # input compound: CC(C)(C)c1ccc(C(=O)Nc2cncc(S(N)(=O)=O)c2)c(Oc2cccc(C(F)(F)F)n2)c1 ; wanted: its pIC50
Response given: 4.70 to 5.00
